Target: T1, LmoNrdR (Listeria monocytogenes serotype 1/2a …, UniProt Q8Y6W9 1-154)
T1 sequence: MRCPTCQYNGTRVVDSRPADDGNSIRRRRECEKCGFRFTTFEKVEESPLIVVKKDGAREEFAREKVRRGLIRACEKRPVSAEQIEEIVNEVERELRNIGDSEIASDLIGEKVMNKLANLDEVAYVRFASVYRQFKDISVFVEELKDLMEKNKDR
Assay: MST; dATP + ATP; MST, temperature not stated. Lmo: 25 mM Bis-Tris propane pH 6.5, 100 mM KCl, 5 mM MgCl2, 5% glycerol, 1 mM DTT, 0.05% Tween 20, one nucleotide 1 mM or two at 0.5 mM each; Spn: 25 mM HEPES pH 7.2, 250 mM NaCl, 2.5 mM MgCl2, 15% glycerol, 2 mM DTT, 0.1 mg/mL BSA, 0.05% Tween 20, 0.5 mM ATP and/or dATP; Eco: 25 mM Tris pH 8.5, 100 mM NaCl, 7 mM MgCl2, 1 mM DTT, 0.025% Tween 20, 1 mM ATP + 1 mM dATP; …
Conditions: protein: recombinant; tags: C-terminal His6; chain copies: 4; label: 5'-Cy5 sense; blunt
measurement label: pKd
Reminder that pKd is minus the log10 of a molar concentration.

Lookup: What does the record list as pKd for Synt 13 bp spacer (dsDNA) DNA 1: GCCAAACACAACATCTAGTGGTTGGATAGTGAGCACACAACATCTAGTGGACCTC DNA 2: GAGGTCCACTAGATGTTGTGTGCTCACTATCCAACCACTAGATGTTGTGTTTGGC ?
Found: 7.96

Lookup: What does the record list as pKd for Synt 20 bp spacer (dsDNA) DNA 1: GCCAAACACAACATCTAGTGGTTGGATAGCGTGACAGTAGCACACAACATCTAGTGGACCTC DNA 2: GAGGTCCACTAGATGTTGTGTGCTACTGTCACGCTATCCAACCACTAGATGTTGTGTTTGGC ?
Found: 6.91
